Origin of the recorded values: the supplement of paper PMC11208160

# EXPERIMENTAL DETAILS: recombinant barcode read abundance after kanamycin selection (control-corrected) (log10(CPM+1)); higher = more efficient recombination; sequences stand for … in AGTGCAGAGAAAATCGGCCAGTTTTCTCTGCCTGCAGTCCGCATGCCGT…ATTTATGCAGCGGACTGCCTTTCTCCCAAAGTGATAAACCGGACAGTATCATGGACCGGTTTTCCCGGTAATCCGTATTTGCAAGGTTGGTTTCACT; site = the 11-nt target
Label scheme for recombinant barcode read abundance (log10): lower than 0.2 is not satisfied, 0.2 and above is satisfied.

Hello, I need to know if GGCTCCCATTGGGTTCTAACCTGTTGCGGAG [GGCTCCCCTCC_LTGcore_AT_RTGcore_CT] (site GGCTCCCCTCC) (LTG core: AT, RTG core: CT) has measured recombinant barcode read abundance (log10) not below 0.2. Thanks!
not satisfied

Hello, I need to know if CGGTCCCCTTGGGTTCTAACCTGTTGCCACC [CGGTCCCCTTG_LTGcore_CT_RTGcore_GG] (site CGGTCCCCTTG) (LTG core: CT, RTG core: GG) has measured recombinant barcode read abundance (log10) not below 0.2. Thanks!
not satisfied

Hello, I need to know if ACGGGACATTGGGTTCTAACCTGTTGCAGAT [ACGGGACCTCT_LTGcore_AT_RTGcore_AT] (site ACGGGACCTCT) (LTG core: AT, RTG core: AT) has measured recombinant barcode read abundance (log10) not below 0.2. Thanks!
not satisfied

Hello, I need to know if GTCGCCCGTTGGGTTCTAACCTGTTGCTAAG [GTCGCCCCTTA_LTGcore_GT_RTGcore_CT] (site GTCGCCCCTTA) (LTG core: GT, RTG core: CT) has measured recombinant barcode read abundance (log10) not below 0.2. Thanks!
satisfied

Hello, I need to know if TGATACCCTTGGGTTCTAACCTGTTGCGTAT [TGATACCCTAC_LTGcore_CT_RTGcore_AT] (site TGATACCCTAC) (LTG core: CT, RTG core: AT) has measured recombinant barcode read abundance (log10) not below 0.2. Thanks!
satisfied
